Test system: T-47D breast
Assay: NCI-60 one-dose screen, 48 h
Details: 10 µM unless noted
About 83,000 compounds went through this panel and 20% of them were active in at least one assay; those are over-represented in the sample as a whole. The source made the active and inactive calls. Rule for the calls: active = growth percent below 10; inactive = the rest.
// one of Yes (active), No (inactive), no free text

Known results for compounds:
# Compound, Label Class
records = [
    ("O=C(CCc1nnc(Cn2ccnc2)o1)c1nc2ccccc2[nH]1", "No"),
    ("NC(N)=N/N=C(/c1ccccc1)c1ccc(Cl)cc1", "No"),
]

q: I would be grateful if you could indicate the recorded call for COc1ccc(Cn2cc3c(c2-c2ccccc2)CCc2cncnc2-3)cc1 .
a: No

q: Please state the recorded outcome for this compound: COc1ccc(/C=C/C(=O)Nc2cccnc2Nc2ccc(F)cc2)cc1
a: No

q: For this compound, state the assay outcome: O=C1NCC(Nc2ccc(Br)cc2Cl)C(=O)N1 (stereo unspecified)
a: No

q: For O=C(CSc1nnc(Nc2ccccc2)s1)NCCc1ccc(F)cc1 , which call appears in the assay record?
a: No

q: // return assay outcome for Cc1nn(-c2ccccc2)c2ncc3c(c12)C(=O)N(Cc1ccccc1)C3=O
a: No

q: Hey, what did the test say about O=C1/C(=C/c2ccc([N+](=O)[O-])o2)Oc2ccc(Cl)cc21 ?
a: Yes

q: Please share the test call associated with COc1ccccc1[C@H]1c2[nH]c3ccccc3c2C[C@H]2C(=O)N(CCCCCCC(=O)NO)CC(=O)N12 .
a: No

q: GET /call?item= CC(c1cc(Cl)ccc1O)c1cc(Cl)ccc1O returns the recorded outcome of this test.
a: No

q: Could you kindly confirm the outcome this assay logged for COc1cc2cn3c4ccc(O)cc4nc(N)c3c2cc1OC ?
a: No

---

Field: growth. Provide a value for each of the compounds that follow.
Test system: HS 578T breast
Assay: NCI-60 one-dose screen, 48 h (100 = growth as untreated, 0 = no growth, -100 = all killed)
Conditions: 10 µM unless noted
The panel holds about 83,000 compounds, 20% with a hit somewhere; the sample as a whole holds those more often.
Give bare numbers, in %.

Some compounds with recorded growth:
# Compound, Readout Kind, Experimental Result
rows = [
    ("COc1cc(/C=C2\\COc3ccc(O)c(O)c3C2=O)cc(OC)c1", "growth", 21.8),
    ("O=C1OCCCCCCCCCC#Cc2ccccc21", "growth", 108),
    ("CN1CCN(Cc2ccc(NC(=O)c3[nH]ncc3Nc3ccnc4ccnn34)cc2)CC1", "growth", 63),
    ("CCOC(Cc1c(N)[nH]c(=S)[nH]c1=O)OCC", "growth", 120),
    ("COc1ccc(-c2nn(-c3ccccc3)cc2/C=C2\\SC(=S)N(CCc3ccc(O)cc3)C2=O)cc1", "growth", 79.1),
]

Fill in growth for each of the 3 compounds listed.
1. Cc1cc(NC(=O)Nc2cccc3ccccc23)no1
2. CCC1=C(c2ccc(OC)cc2)C(C)Oc2cc(OC(C)=O)ccc21 (stereo unspecified)
3. O=C1OC(c2ccc(-c3ccccc3)cc2)=C/C1=C/c1cccs1

a:
107
83.5
98.4

---

System: A549/ATCC NSCLC
Assay: NCI-60 one-dose screen, 48 h (100 = growth as untreated, 0 = no growth, -100 = all killed)
Details: 10 µM unless noted
About 83,000 compounds went through this panel and 20% of them were active in at least one assay; those are over-represented in the sample as a whole.
Readout Kind: growth (%)
Give bare numbers, in %.

Can you give me growth for all of these, one by one?
1. COc1ccc2[nH]c(-c3ccccc3)cc2c1
2. Fc1ccc(-c2nc(Nc3ccc(-c4nc5ccccc5[nH]4)cc3)nc(N3CCOCC3)n2)cc1
3. O=C(O)c1ccc(NC(=O)c2ccc(Nc3ccnc(C(F)(F)F)c3)cc2)cc1
4. COC(=O)[C@]12CC[C@@H](C)[C@H](C)[C@@H]1C1=CC[C@@H]3[C@@]4(C)C=C(O)C(=O)[C@@]5(C)COC(=C54)C[C@@]3(C)[C@]1(C)CC2
5. CNc1ccc(CSc2ccc(Cl)cc2)cc1

a:
96.2
-75.2
103
-59.5
93.6

For each of the molecules below, state growth.
1. O=C(/C(=C/c1cccc([N+](=O)[O-])c1)c1ccccc1)c1ccccc1
2. c1ccc(N2CCN(c3nncc4ccccc34)CC2)nc1
3. Cc1nn(-c2ccc(Cl)cc2)c2nc3c(nc12)C(=O)C(=O)c1ccccc1-3

a:
1. 53.6
2. 100
3. 18.2

Report growth for every entry below.
1. COc1ccc(-c2c3c(nn2-c2ccc(N)cc2)CCc2cnoc2-3)cc1OC
2. O=C1C2C3C=CC(O3)C2C(=O)N1Nc1ccccc1 (stereo not given)

a:
1. 85.2
2. 103

---

Tested on: EKVX NSCLC
Experiment: NCI-60 one-dose screen, 48 h
Settings: 10 µM unless noted
This is part of a sample that, as a whole, favours compounds with a hit. Of some 83,000 tested, about 20% had one in any assay. Activity calls are given as the source filed them. The calls were made as follows: active = growth percent below 10; inactive = the rest.
One label from this list, please: active, inactive

Example entries begin here.
# Item Smiles, Label Class
records = [
    ("COc1ccc2nccc(/C=C/c3ccnc4ccc(OC)cc34)c2c1", "inactive"),
    ("O=[N+]([O-])c1ccc(N/N=C\\c2ccccc2[N+](=O)[O-])nc1", "inactive"),
    ("C=CCOc1ccc2c(c1)CC[C@@H]1[C@@H]2CC[C@@]2(C)[C@H]1CC[C@]2(C)O", "inactive"),
]

q: Recorded test call requested for COc1ccc2[nH]c(-c3ccccc3)cc2c1
a: inactive

q: Which outcome did this test record for the compound CN1C(=O)C(=Cc2cn(Cc3ccccc3)c3ccc(Br)cc23)C(=O)N(C)C1=O ?
a: inactive

q: // param item: C[n+]1c2ccccc2c(NC2CCNCC2)c2[nH]c3ccccc3c21 ; yields the recorded call
a: inactive

q: State the result this test recorded for CCN(CC)c1ccc(CN(CC(=O)c2ccc(Cl)c(Cl)c2)Cc2ccccc2)cc1 .
a: inactive

q: Any idea what this test logged for Cc1ccc(NC(=O)Nc2ccc(-c3cccnc3)cc2N2CCC(CO)CC2)cc1 ?
a: inactive

q: Tell me the assay call for O=C(Nc1ccc(C2=NCCCN2)cc1)Nc1ccc(C2=NCCCN2)cc1 please.
a: inactive

q: Please share the test call associated with CCN(CC)CCCCNc1c2ccccc2[n+](C)c2c1[nH]c1ccccc12 .
a: active

---

Tested on: RPMI-8226 leukemia
Test: NCI-60 one-dose screen, 48 h
Settings: 10 µM unless noted
About 83,000 compounds went through this panel and 20% of them were active in at least one assay; those are over-represented in the sample as a whole. Calls of active or inactive are those of the source. Rule for the calls: active = growth percent below 10; inactive = the rest.
Valid outcomes are listed here; reply with one: 1 (active), -1 (inactive)

Some solved entries appear below for comparison.
# Compound, Label Class
measured = [
    ("CCN1C(=O)c2ccc3c4c(ccc(c24)C1=O)C(=O)N(CCCNCc1ccccc1OC)C3=O", 1),
    ("CC(=O)Oc1c(C)c(OC(C)=O)c2c(c1C(C)=O)OC1CC(=O)C(C(C)=O)=C(O)C21C (stereo unspecified)", -1),
    ("CCN(CC)CCCNCCCNc1cc(OC)cc2cccnc12", -1),
    ("CCN(CC)CCCCNc1c2ccccc2[n+](C)c2c1[nH]c1ccccc12", 1),
    ("CCOc1nc(-c2ccccc2)cc2c(O)c(-c3nnco3)[nH]c(=O)c12", -1),
]

q: Dear all, I need the recorded test outcome for COc1ccc2[nH]c(-c3ccccc3)cc2c1 , thank you.
a: -1

---

System: SK-MEL-2 melanoma
Experiment: NCI-60 one-dose screen, 48 h (100 = growth as untreated, 0 = no growth, -100 = all killed)
Settings: 10 µM unless noted
About 83,000 compounds went through this panel and 20% of them were active in at least one assay; those are over-represented in the sample as a whole.
Mark fulfilled for reported growth of 90% or greater; mark not fulfilled for anything smaller.

Worked examples, 8 compounds total:
# Item Smiles, Label Class
data = [
    ("Cc1cc(NC(=O)c2ccc(N)cc2)ccc1N=Nc1ccc2c(O)c(N=Nc3ccc(Cl)c(S(=O)(=O)O)c3)c(S(=O)(=O)O)cc2c1", "fulfilled"),
    ("CCCCN(CCCC)CCCOC(=O)c1ccc(N)cc1", "not fulfilled"),
    ("CCCCCCCCCCCCCCCCN=C(CC(=O)O)C(=O)O", "fulfilled"),
    ("Fc1ccc(-c2nnc(/C=C/c3cn(-c4ccccc4)nc3-c3ccccc3)o2)cc1", "fulfilled"),
    ("CC(C)[O-].CC(C)[O-].CN(CCN(C)Cc1cc(F)cc(F)c1[O-])Cc1cc(F)cc(F)c1[O-].[Ti+4]", "not fulfilled"),
    ("COc1ccc(COC(C)=O)cc1", "fulfilled"),
    ("C[n+]1c2ccccc2c(Nc2ccc(N3CCCCC3)cc2)c2[nH]c3ccccc3c21", "not fulfilled"),
    ("CC(C)[C@H]1CC[C@H]2[C@@H](CC[C@H]3[C@](C)(CN)CCC[C@]23C)C1", "not fulfilled"),
]

q: Check this compound for growth at or above 90%: O=C(CSc1nc2c(n1Nc1ccccc1)-c1ccccc1SC2)Nc1nc(-c2ccc(Cl)cc2)cs1
a: fulfilled
